B1: Histone-lysine N-methyltransferase SETD2, residues 2382 to 2430; numbered along this chain, Q9BYW2 (parent)
chain: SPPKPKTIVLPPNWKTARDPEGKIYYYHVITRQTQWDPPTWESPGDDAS

variants of: B1; assay: abundance fitness (aPCA) (normalised: wild type 0, dead -1); higher = more abundant; growth selection in yeast, the domain comes from the species named; conditions: Homo sapiens
observed_property: abundance fitness

SPPKPKTIVLPPNWKTARDPEGKIYYYHVITRQTQWDPPTWRSPGDDAS [E42R] :: -0.184
SPPKPKTIVLPPNWKTARVPEGKIYYYHVITRQTQWDPPTWESPGDDAS [D19V] :: -0.404
SPPKPKTIVLPPNWKTARDPEGKIYYYHVITRQTQWDPPTWESPGDWAS [D47W] :: -0.288
SPPKPKTIVLPPNWKTNRDPEGKIYYYHVITRQTQWDPPTWESPGDDAS [A17N] :: 0.038
SPPKPKTIVLPPNWKTARDPEGKIYYYHVITRQTQWDPPTWESPQDDAS [G45Q] :: -0.313
SPPKPKTIVLPPNWKTARDPEGKIYYYHVITRQTQWDPPTWESPGYDAS [D46Y] :: -0.436
SPPKPKTIVDPPNWKTARDPEGKIYYYHVITRQTQWDPPTWESPGDDAS [L10D] :: -0.489
SPPKPKTIVLPPNWKTARDPEGKIYYYHVITRTTQWDPPTWESPGDDAS [Q33T] :: -0.13
SPPKPKTIVLPPNWKTARDPEGCIYYYHVITRQTQWDPPTWESPGDDAS [K23C] :: -0.402
SPPKEKTIVLPPNWKTARDPEGKIYYYHVITRQTQWDPPTWESPGDDAS [P5E] :: 0.057
SPPKPKTIVLPENWKTARDPEGKIYYYHVITRQTQWDPPTWESPGDDAS [P12E] :: 0.105
